- System: AXL
- APPLIED CONDITIONS: concentration: 1 μM, replicates: in singlicate; n = 1;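 further: KINOMEscan kinase panel screen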
MEASUREMENT TYPE: %Inh (%)
Give bare numbers, in %.

Look over these answered cases.
>>> endpoint_result("COC(=O)Nc1nc2ccc(Oc3ccc(NC(=O)Nc4cc(C(F)(F)F)ccc4F)cc3)cc2[nH]1.Cl [GW654607]")
97.3
>>> endpoint_result("O=C(Nc1n[nH]c2cc(-c3cccs3)ccc12)C1CC1 [SB-731284]")
0
>>> endpoint_result("COc1cccc(CC(=O)N2CCc3cc(-c4cn(C)c5ncnc(N)c45)ccc32)c1 [GSK2608899]")
96.2
>>> endpoint_result("CN(C)CCOc1ccc(-c2cc(-c3ccc(Cl)c(O)c3)c(-c3ccncc3)[nH]2)cc1.Cl.Cl [SB-684387]")
0
>>> endpoint_result("COC(=O)Nc1nc2ccc(Oc3ccc(CC(=O)Nc4cc(C(F)(F)F)ccc4F)cc3)cc2[nH]1 [GW680903]")
23
>>> endpoint_result("Cc1ccc(C)c(NC(=O)Nc2ccc(C)c(-c3ccc(C(=O)Nc4ccncc4)cc3)c2)c1 [GSK1398473]")
90
>>> endpoint_result("CN(c1ccc2c(c1)nc(NCc1ccccc1)n2C)c1ccnc(Nc2ccc(CS(C)(=O)=O)cc2)n1.Cl [GW811603]")
85
>>> endpoint_result("Cl.Cl.NC(CNC(=O)c1cc(Br)c(-c2ccnc3[nH]ccc23)s1)c1ccccc1 (stereo not shown) [GSK1322949]")
90.8

Please state %Inh for every compound in the list that follows.
1. Cl.N#CCc1ccc(Nc2nccc(Nc3ccc(Oc4ccccc4)cc3)n2)cc1 [GW639905]
2. COc1cccc(-c2nc(-c3ccccc3)[nH]c2-c2ccncc2)c1 [SB-610250]
3. COc1ccc(C2=C(Nc3cccc(O)c3)C(=O)NC2=O)cc1 [SB-390766]
4. Fc1cc(Cl)ccc1Nc1ccnc2cc(-c3ccc(CN4CCOCC4)o3)ccc12 [GW560109]
5. O=C(Nc1n[nH]c2nc(-c3ccccc3O)ccc12)C1CC1 [SB-711880]
6. CCOc1nccc(-c2c(-c3ccc(F)cc3)ncn2C2CCNCC2)n1 [SB-249175]

22
15
35
40
18
54

====

- Test system: TYK2(JH1domain-catalytic)
- APPLIED CONDITIONS: concentration: 1 μM, replicates: in singlicate; n = 1
Exercise: state measured %Inh for each of the compounds provided.
Numbers only, in %.

>>> endpoint_result("COc1ccc(C)c(Nc2ccnc(Nc3ccc(-c4cnc[nH]4)cc3)n2)c1.Cl")
44
>>> endpoint_result("Cn1cc(-c2ccc3c(c2)CCN3C(=O)Cc2cc(F)cc(F)c2F)c2c(N)ncnc21")
11
>>> endpoint_result("Cc1ccc(NC(=O)c2ccnc(N3CCCCC3)c2)cc1-c1ccc(C(=O)NCC2CC2)cc1")
19

Moving on to the next compound.
Query: %Inh; subject: "O=C(O)C(F)(F)F.O=c1[nH]ccc2nc(N[C@@H]3CCNC3)nc(Nc3ccc4c(c3)S(=O)(=O)CC4)c12"
90.8

====

Exercise: state measured %Inh for each of the compounds provided.
- Tested on: PDGFRA
- APPLIED CONDITIONS: concentration: 1 μM, replicates: in singlicate; n = 1
Answers are plain numbers, in %.

Look over these answered cases.
>>> endpoint_result("Cn1cc(-c2cnc(N)c3c(-c4ccc5c(c4)CCN5C(=O)Cc4ccccc4)csc23)cn1 [GSK2593074]")
98.2
>>> endpoint_result("CN(c1ccc2c(c1)nc(NCc1ccccc1)n2C)c1ccnc(Nc2ccc(CS(C)(=O)=O)cc2)n1.Cl [GW811603]")
99.8
>>> endpoint_result("CN(C)c1ncnc2nc[nH]c12 [SKF-31736]")
0
>>> endpoint_result("COc1ccc(C)c(Nc2ccnc(Nc3ccc(-c4cnc[nH]4)cc3)n2)c1.Cl [GW784041]")
0
>>> endpoint_result("CC(=O)Nc1cn2nc(Oc3cccc(NC(=O)c4cccc(C(F)(F)F)c4)c3)ccc2n1")
99.6

Please state %Inh for every compound in the list that follows.
1. Fc1cc(Cl)ccc1Nc1ccnc2cc(-c3ccc(CN4CCSCC4)o3)ccc12 [GW560106]
2. Nc1ncnc2scc(-c3ccc(NC(=O)Cc4cc(F)ccc4F)cc3)c12.O=C(O)C(F)(F)F [SB-731254-M]
3. COC(=O)Nc1nc2cc(Oc3ccc(NC(=O)Nc4cccc(SC)c4)cc3)ccc2[nH]1.Cl [GW697999]

1. 99.1
2. 99.5
3. 99.4

====

- System: MAP4K4
- APPLIED CONDITIONS: concentration: 1 μM, replicates: in singlicate; n = 1
Label TRUE when %Inh is strictly below 20%; otherwise label FALSE.

>>> answer_label("CNc1nccc(-c2ccc3c(N)n[nH]c3c2)n1 [GSK2206003]")
"TRUE"
>>> answer_label("COc1ccc(C)c(Nc2ccnc(Nc3ccc(-c4cnc[nH]4)cc3)n2)c1.Cl [GW784041]")
"FALSE"
>>> answer_label("CCOc1nccc(-c2c(-c3ccc(F)cc3)ncn2C2CCNCC2)n1 [SB-249175]")
"FALSE"
>>> answer_label("N#CC1(c2cccc(C(=O)Nc3cccc(Oc4ccc5nc(NC(=O)C6CC6)sc5n4)c3)c2)CC1")
"FALSE"
>>> answer_label("Nc1ncnc2scc(-c3ccc(NC(=O)Cc4cc(F)ccc4F)cc3)c12.O=C(O)C(F)(F)F [SB-731254-M]")
"TRUE"
>>> answer_label("COC(=O)Nc1nc2ccc(Oc3ccc(NC(=O)Nc4cc(C(F)(F)F)ccc4F)cc3)cc2[nH]1.Cl [GW654607]")
"FALSE"

Input O=C1NC(=O)C(c2ccccc2Cl)=C1Nc1cccc(Cl)c1 [SB-342409] ; condition: %Inh strictly below 20%. Does it hold?
TRUE

Please give the result for COc1cccc(-c2nc(-c3ccccc3)[nH]c2-c2ccncc2)c1 [SB-610250] too.
TRUE

Please give the result for COC(=O)Nc1nc2cc(Oc3ccc(NC(=O)Nc4cccc(SC)c4)cc3)ccc2[nH]1.Cl [GW697999] too.
TRUE

Please give the result for CN(c1ccc2c(c1)nc(NCc1ccccc1)n2C)c1ccnc(Nc2ccc(CS(C)(=O)=O)cc2)n1.Cl [GW811603] too.
TRUE

Please give the result for Cc1ccc(Nc2ccnc(Nc3ccc(C)c(F)c3)n2)cc1O.Cl [GW582868] too.
TRUE

Please give the result for Fc1cc(Cl)ccc1Nc1ccnc2cc(-c3ccc(CN4CCOCC4)o3)ccc12 [GW560109] too.
FALSE

Please give the result for Fc1cc(Cl)ccc1Nc1ccnc2cc(-c3ccc(CN4CCSCC4)o3)ccc12 [GW560106] too.
FALSE

Please give the result for Cc1ccc(NC(=O)c2cccc(N3CCCCC3)c2)cc1-c1ccc(C(=O)NCC2CC2)cc1 [GSK1917008] too.
TRUE

Please give the result for Cc1cccc(Nc2nc(N[C@H]3CCCC[C@H]3N)ncc2C(N)=O)c1.Cl [GSK986310] too.
FALSE

====

- Test system: PAK7
- APPLIED CONDITIONS: concentration: 1 μM, replicates: in singlicate; n = 1
Mark N for %Inh values under 1%, and Y for everything at or above.

>>> answer_label("CCNC(=O)/C=C/c1n[nH]c2cc(Sc3ccccc3C(=O)NC)ccc12")
"Y"
>>> answer_label("O=C(O)C(F)(F)F.O=c1[nH]ccc2nc(N[C@@H]3CCNC3)nc(Nc3ccc4c(c3)S(=O)(=O)CC4)c12 [GSK2181306]")
"Y"
>>> answer_label("CNc1nccc(-c2ccc3c(N)n[nH]c3c2)n1 [GSK2206003]")
"Y"
>>> answer_label("COc1cccc(NC(=O)NCCNc2ccnc(Nc3ccc(F)cc3)n2)c1 [GSK1379879]")
"N"

Given COc1ccc(C2=C(Nc3cccc(O)c3)C(=O)NC2=O)cc1 [SB-390766] , state whether its %Inh is at least 1%.
N

====

- Tested on: PRKG2
- APPLIED CONDITIONS: concentration: 1 μM, replicates: in singlicate; n = 1
MEASUREMENT TYPE: %Inh (%)
One number for each entry, in %.

>>> endpoint_result("Cc1cccc(Nc2nc(N[C@H]3CCCC[C@H]3N)ncc2C(N)=O)c1.Cl")
0

Please state %Inh for every molecule in the list that follows.
1. O=C(Nc1n[nH]c2nc(-c3cccc(O)c3)ccc12)C1CC1
2. N#Cc1cnc2cc(-c3cnc(CNCCN4CCOCC4)s3)ccc2c1Nc1ccc(Oc2ccccc2)cc1

1. 35
2. 0

Please state %Inh for every molecule in the list that follows.
1. O=C(O)C(F)(F)F.O=c1[nH]ccc2nc(N[C@@H]3CCNC3)nc(Nc3cc(Cl)cc(Cl)c3)c12
2. COc1cccc2c(-c3ccncc3)c(-c3ccc(F)cc3)nn12
3. O=C(Nc1n[nH]c2nc(-c3ccccc3)ccc12)C1CC1
4. COc1ccc(NC(=O)c2ccoc2)cc1-c1ccc(C(=O)NCC2CC2)cc1

1. 98.5
2. 0
3. 0
4. 0
